Values from patent US12350269B2

Molecular target: JAK1 (Homo sapiens)
Sequence (P23458 whole entry): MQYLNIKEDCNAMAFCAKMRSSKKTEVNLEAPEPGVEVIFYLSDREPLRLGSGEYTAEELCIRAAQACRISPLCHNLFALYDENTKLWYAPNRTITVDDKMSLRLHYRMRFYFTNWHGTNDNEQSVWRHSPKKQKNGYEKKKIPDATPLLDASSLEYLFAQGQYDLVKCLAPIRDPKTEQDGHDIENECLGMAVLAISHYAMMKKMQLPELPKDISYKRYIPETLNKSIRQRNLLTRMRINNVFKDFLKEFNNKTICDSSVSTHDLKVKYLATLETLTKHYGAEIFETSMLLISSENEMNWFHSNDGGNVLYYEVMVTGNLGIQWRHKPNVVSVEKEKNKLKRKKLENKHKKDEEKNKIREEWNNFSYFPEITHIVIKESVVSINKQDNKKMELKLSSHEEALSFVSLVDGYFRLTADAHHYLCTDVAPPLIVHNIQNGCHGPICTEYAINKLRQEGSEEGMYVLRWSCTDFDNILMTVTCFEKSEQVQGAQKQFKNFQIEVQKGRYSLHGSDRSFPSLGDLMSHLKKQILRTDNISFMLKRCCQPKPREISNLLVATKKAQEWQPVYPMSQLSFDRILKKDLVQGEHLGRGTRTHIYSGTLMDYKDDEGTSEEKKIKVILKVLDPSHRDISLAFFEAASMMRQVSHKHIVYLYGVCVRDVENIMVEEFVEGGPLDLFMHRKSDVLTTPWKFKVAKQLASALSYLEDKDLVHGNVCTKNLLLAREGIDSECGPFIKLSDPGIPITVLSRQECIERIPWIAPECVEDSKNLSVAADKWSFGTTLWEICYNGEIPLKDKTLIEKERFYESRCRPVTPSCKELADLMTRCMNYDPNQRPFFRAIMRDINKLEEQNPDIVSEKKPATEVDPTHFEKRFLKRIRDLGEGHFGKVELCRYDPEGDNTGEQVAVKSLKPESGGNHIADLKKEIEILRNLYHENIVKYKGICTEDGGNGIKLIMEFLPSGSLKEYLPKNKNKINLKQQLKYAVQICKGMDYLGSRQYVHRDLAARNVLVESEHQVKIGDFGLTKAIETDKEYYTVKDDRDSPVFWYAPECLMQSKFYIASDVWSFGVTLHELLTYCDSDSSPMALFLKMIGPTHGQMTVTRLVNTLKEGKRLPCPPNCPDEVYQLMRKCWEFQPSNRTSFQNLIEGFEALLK
RECORDED ENDPOINT: IC50 (nM)
Express it in nM; write the number only.

Consider CCS(=O)(=O)N1CCN(c2ccc(Nc3ncc(C(N)=O)c(NC4CC4)n3)cc2)CC1 [cerdulatinib] . Its measured IC50 is 12

----------
Biological target: TSSK
Experiment: Purified kinase assay (Millipore)
Details: 300 nM ATP
RECORDED ENDPOINT: pIC50
Schema: pIC50 number; meaning minus log10 of the concentration expressed in molar units.

Consider CCS(=O)(=O)N1CCN(c2ccc(Nc3ncc(C(N)=O)c(NC4CC4)n3)cc2)CC1 . Its measured pIC50 is 7.85

----------
Target chain: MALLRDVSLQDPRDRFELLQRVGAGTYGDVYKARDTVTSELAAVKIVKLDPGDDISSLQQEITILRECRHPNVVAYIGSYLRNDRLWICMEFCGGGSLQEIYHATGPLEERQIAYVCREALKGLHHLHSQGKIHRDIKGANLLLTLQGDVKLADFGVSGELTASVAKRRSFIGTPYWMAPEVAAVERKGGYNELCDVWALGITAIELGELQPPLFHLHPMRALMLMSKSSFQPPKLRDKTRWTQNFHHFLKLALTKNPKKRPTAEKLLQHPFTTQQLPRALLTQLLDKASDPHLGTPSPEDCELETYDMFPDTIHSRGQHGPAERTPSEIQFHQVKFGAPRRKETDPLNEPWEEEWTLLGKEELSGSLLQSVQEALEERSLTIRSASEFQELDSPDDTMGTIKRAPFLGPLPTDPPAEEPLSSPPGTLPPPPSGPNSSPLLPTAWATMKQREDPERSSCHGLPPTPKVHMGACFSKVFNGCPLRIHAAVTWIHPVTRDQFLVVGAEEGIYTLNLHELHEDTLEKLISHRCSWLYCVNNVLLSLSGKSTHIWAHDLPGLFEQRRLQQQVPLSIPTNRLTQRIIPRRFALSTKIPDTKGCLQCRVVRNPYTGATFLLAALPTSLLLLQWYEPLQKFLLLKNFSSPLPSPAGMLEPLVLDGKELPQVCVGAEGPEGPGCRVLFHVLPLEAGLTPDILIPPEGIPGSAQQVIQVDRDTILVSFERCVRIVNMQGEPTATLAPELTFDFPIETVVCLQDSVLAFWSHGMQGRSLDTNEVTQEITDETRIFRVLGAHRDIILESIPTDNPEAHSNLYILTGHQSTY
RECORDED ENDPOINT: pIC50
Schema: pIC50 number; meaning minus log10 of the concentration expressed in molar units.

Consider CCS(=O)(=O)N1CCN(c2ccc(Nc3ncc(C(N)=O)c(NC4CC4)n3)cc2)CC1 [cerdulatinib] . Its measured pIC50 is 7.74

----------
Target: FMS (Homo sapiens, UniProt P07333)
Sequence (P07333 20-972): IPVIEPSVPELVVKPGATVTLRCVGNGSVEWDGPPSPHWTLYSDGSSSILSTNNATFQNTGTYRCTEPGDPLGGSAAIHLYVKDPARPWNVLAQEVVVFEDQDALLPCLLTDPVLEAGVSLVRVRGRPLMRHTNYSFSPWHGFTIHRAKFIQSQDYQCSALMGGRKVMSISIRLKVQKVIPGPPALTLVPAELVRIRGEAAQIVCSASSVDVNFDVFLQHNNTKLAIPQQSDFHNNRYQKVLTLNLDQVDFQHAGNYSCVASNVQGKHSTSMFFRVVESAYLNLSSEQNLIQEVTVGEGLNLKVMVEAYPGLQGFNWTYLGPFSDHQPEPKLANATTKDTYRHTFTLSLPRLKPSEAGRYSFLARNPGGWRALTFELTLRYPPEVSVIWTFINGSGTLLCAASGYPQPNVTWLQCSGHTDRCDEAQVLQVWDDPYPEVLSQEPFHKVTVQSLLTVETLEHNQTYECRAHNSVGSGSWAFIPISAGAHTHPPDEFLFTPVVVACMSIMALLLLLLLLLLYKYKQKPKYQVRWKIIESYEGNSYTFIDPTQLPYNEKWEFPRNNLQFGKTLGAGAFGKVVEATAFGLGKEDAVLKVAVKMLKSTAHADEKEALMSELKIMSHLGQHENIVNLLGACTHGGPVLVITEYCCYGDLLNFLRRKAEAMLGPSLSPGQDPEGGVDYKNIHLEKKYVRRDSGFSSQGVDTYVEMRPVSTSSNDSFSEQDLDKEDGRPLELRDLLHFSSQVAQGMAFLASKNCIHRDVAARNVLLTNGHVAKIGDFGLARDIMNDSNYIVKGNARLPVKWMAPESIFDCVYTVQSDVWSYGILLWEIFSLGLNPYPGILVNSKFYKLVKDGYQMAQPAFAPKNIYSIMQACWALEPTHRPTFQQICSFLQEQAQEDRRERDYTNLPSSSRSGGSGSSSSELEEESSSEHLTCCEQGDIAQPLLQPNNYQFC
RECORDED ENDPOINT: IC50
State the value with its unit after it.

Consider CCS(=O)(=O)N1CCN(c2ccc(Nc3ncc(C(N)=O)c(NC4CC4)n3)cc2)CC1 [cerdulatinib] . Its measured IC50 is 5 nM

----------
Target: AMPK
Assay: Purified kinase assay (Millipore)
Conditions: 300 nM ATP
RECORDED ENDPOINT: IC50 (nM)
Express it in nM; write the number only.

Consider CCS(=O)(=O)N1CCN(c2ccc(Nc3ncc(C(N)=O)c(NC4CC4)n3)cc2)CC1 [cerdulatinib] . Its measured IC50 is 6

----------
RECORDED ENDPOINT: pIC50
Schema: pIC50 number; meaning minus log10 of the concentration expressed in molar units.

Entry CCS(=O)(=O)N1CCN(c2ccc(Nc3ncc(C(N)=O)c(NC4CC4)n3)cc2)CC1 [cerdulatinib] under FLT4 (Homo sapiens, UniProt P35916) had pIC50 of 7.29
